Values compiled from PubChem BioAssay (NCI).

system: HCT-116 colon; test: NCI tumour cell line growth inhibition, 48 h
parameter-measured: TGI

I would be grateful if you could share the reported TGI for "NCCCSCC(=O)O" . > 100 µM

Need TGI of "Cc1nc2ccccc2n1Cc1ccc(NC(=S)NC2CCCCC2)cc1" , thanks. > 100 µM

For the compound "Cc1nc(N(C)C)nc(-c2cccc(-c3ccn(CCN(C)C)n3)c2)c1C" , what TGI is on record? > 20 µM

Which measured TGI value corresponds to "COc1ccc(S(=O)(=O)Nc2c(/C=C\c3cc(OC)c(OC)c(OC)c3)ccc(OC)c2O)cc1OC" ? > 100 µM

====

test system: HOP-92 NSCLC; assay: NCI tumour cell line growth inhibition, 48 h
parameter-measured: TGI

Fill in the blank: the reported TGI of "CC1(C)OC(=O)C(c2ccsc2)C(=O)O1" is ____. > 100 µM

Item "COc1ccc([C@H]2C=C(c3cc(F)c(Cl)cc3Cl)N=c3s/c(=C\c4ccc(-c5ccc(Cl)cc5Cl)o4)c(=O)n32)cc1" has what recorded TGI? > 100 µM

Return reported TGI; argument: "COc1ccc(-c2cc(-c3ccncc3)nc(N)c2-c2ccc(F)cc2)cc1" > 100 µM

Which measured TGI value corresponds to NC(CSC(c1ccccc1)(c1ccccc1)c1ccc(Br)cc1)C(=O)O (stereo not given) ? 39.6 µM

Suppose we examine the compound "COc1ccc2c(C(=O)NCCCCCC(=O)O)cc3cc4c(cc3c2c1)OCO4" ; what TGI value has been reported? > 100 µM

If you can, please state the reported TGI value of "CN(C)C=Nc1cccc2c1NSN2" . > 100 µM

Given the compound "Cc1nc(N(C)C)nc(-c2cccc(-c3ccn(CCN(C)C)n3)c2)c1C" , what is its reported TGI? > 20 µM

What does the record list as TGI for FC1(F)SC2CCCCCCCCCCC2C1(F)F (stereo not given) ? 51.6 µM

Reported TGI for "C=CCOc1ccc2c(c1)CC[C@@H]1[C@@H]2CC[C@]2(C)C(=O)/C(=N/O)C[C@@H]12" : what is it? 5.98 µM

For "Cn1c(=O)c2nc3sc4ccccc4c(=N)n3c2n(C)c1=O" , what is its reported TGI? > 100 µM

====

tested on: SK-MEL-2 melanoma; assay: NCI tumour cell line growth inhibition, 48 h
For each of the compounds below, state its TGI.
Give the quantity in µM, number only.

Item "O=[N+]([O-])c1cnccc1-n1nnc2ccccc21" has what recorded TGI? 35.8

Item under review: OC(c1cc2c(Cl)cc(Cl)cc2c2cc(C(F)(F)F)ccc12)C1CCCCN1 (stereo not given) . Reported TGI? 4.12

====

system: UACC-257 melanoma; assay: NCI tumour cell line growth inhibition, 48 h
parameter-measured: TGI

Quick one: TGI of "COc1cccc(/C=N/[N-]C(N)=O)c1[O-].[Cu+2].c1ccncc1" ? > 100 µM

Would you mind telling me what TGI value was observed for "COc1ccc([C@H]2C=C(c3cc(F)c(Cl)cc3Cl)N=c3s/c(=C\c4ccc(-c5ccc(Cl)cc5Cl)o4)c(=O)n32)cc1" ? > 100 µM

Fill in: TGI of "CCN(CC)C(=O)N1CN(c2ccccc2)C2(CCN(CCCC3(c4ccc(F)cc4)OCCO3)CC2)C1=O" is ___ 26.3 µM

Item C[C@]12CC[C@H](O)CC1CCC[C@@H]2O (stereo partly specified) has what recorded TGI? > 100 µM

Entry under review: "COc1ccc(/C=C2\NC(=S)N(CN3CCOCC3)C2=O)cc1" . Reported TGI? > 100 µM

Quick check: TGI of "C/C(=N\O)c1ccc(Nc2cc(-c3ccccc3)nc3c(O)cccc23)cc1" ? 24.4 µM

====

system: M14 melanoma; assay: NCI tumour cell line growth inhibition, 48 h
Would you kindly list TGI for each of these molecules?

# query: TGI of entry OC1/C(=C/c2ccccc2)CNC/C1=C\c1ccccc1 (centres undefined) > 100 µM

Data request, read-out TGI, for O=c1n(CC2CO2)c2ccccc2n1CC1CS1 (centres undefined) > 100 µM

Data request, read-out TGI, for CC1=NN(c2cccc(S(=O)(=O)O)c2)C2(C1)SCC(=O)N2c1nc2ccccc2s1 (centres undefined) > 100 µM

For "CC/C(=C(/c1ccc(Cl)cc1)c1ccc(OCCCN(C)C)cc1)c1ccc(OC)cc1" , what is its reported TGI? 1.92 µM

Field request: TGI | item: "CC(=O)Nc1ccc2cc3c(nc2n1)c1cccnc1n3S(=O)(=O)c1ccccc1" > 100 µM

Quick check: TGI of "CC1(C)CC(=O)C(/C=N/c2nc(-c3cccc([N+](=O)[O-])c3)cs2)=C(O)C1" ? 38.2 µM

Sample "O=C(O)c1cccc(F)c1C(=O)c1ccc2ccccc2c1" — what was its TGI? > 100 µM

Quick check: TGI of "COc1ccc2c(C(=O)NCCCCCC(=O)O)cc3cc4c(cc3c2c1)OCO4" ? > 100 µM

Entry C=CCOC1=C(OC(C)=O)C(C2COC(C)(C)O2)OC1=O (centres undefined) has what TGI? 53.8 µM

Record request: TGI value, item OCC1C2C=CC(O2)[C@H]1CO (some centres undefined) > 100 µM

Record request: TGI value, item "O=C(CCCN1CCC(Nc2ccc(F)cc2)(c2nnnn2C2CCCCC2)CC1)c1ccc(F)cc1" 32.4 µM

// lookup TGI for "CCCCCC(=O)OC[n+]1ccc(-c2c(COC(=O)NC(C)C)c(COC(=O)NC(C)C)c3n2CCC3)cc1" > 100 µM

Find the recorded TGI belonging to "COc1ccc(-c2nn(C(=O)c3cc(OC)c(OC)c(OC)c3)c3cc(N)ccc23)cc1" and report it. 19.5 µM

Endpoint output: TGI of Cc1ccc(S(=O)(=O)N/N=C2/C3CC4CCC2C4C3)cc1 (centres undefined) . Value? > 100 µM

Could you share which TGI value was measured for "Cc1csc(CP(=O)(OC(C)C)OC(C)C)n1" ? > 100 µM

Find the recorded TGI belonging to "COc1ccc(-c2cc(-c3ccncc3)nc(N)c2-c2ccc(F)cc2)cc1" and report it. > 100 µM

Which TGI value belongs to "Cc1ccc(Sc2cc([N+](=O)[O-])cc(Sc3ccc(C)cc3)c2Sc2ccc(C)cc2)cc1" ? > 100 µM

May I ask what TGI has been recorded for O=C1OC(/C=C/c2ccccc2)C(=O)C1=O (centres undefined) ? > 100 µM

If you can, please state the reported TGI value of O=P1(NCCCl)OCCC(OO)N1CCCl (centres undefined) . > 57 µM

====

Give measured TGI for each item. Keep answers brief.
system: SK-MEL-2 melanoma; assay: NCI tumour cell line growth inhibition, 48 h

Suppose we examine the compound "Cn1c(=O)ccc2cc(C(=O)c3ccccc3)ccc21" ; what TGI value has been reported? > 100 µM

May I ask what TGI has been recorded for "Cc1cccc2c1CC1(Cc3c(C)cccc3C1=O)C2=O" ? > 100 µM

I would be grateful if you could share the reported TGI for O=c1n(CC2CO2)c2ccccc2n1CC1CS1 (stereo not drawn) . > 100 µM

====

test system: NCI-H522 lung; assay: NCI tumour cell line growth inhibition, 48 h
Please provide measured TGI for the entries that follow.

Which TGI reading was recorded for the compound "COC(=O)/C=C/c1cc(OC)c2c(c1)[C@@H](C(=O)OC)[C@H](c1ccc(OC)c(OC)c1)O2" ? > 100 µM

GET /values?readout=TGI&item= COc1ccccc1NC(=O)C(=O)C(C#N)CC(C)(C)C=O (stereo not drawn) > 100 µM

# TGI lookup, item CC(=O)Nc1ccc(C(=O)NN2C(=O)C(Cl)C2/C=C/c2ccccc2)cc1 (stereo not drawn) > 100 µM

====

Hi there, I'd appreciate the recorded TGI for every entry that follows.
tested on: SK-MEL-5 melanoma; experiment: NCI tumour cell line growth inhibition, 48 h

Item under review: "C=C(C)[C@H]1C=C[C@@H](OC(C)=O)[C@@]2(COC(C)=O)[C@H](OC(=O)CCC)[C@H]3[C@@H](OC(C)=O)[C@@H](C)C[C@]3(O)C(=O)[C@@](C)(OC(C)=O)[C@H]12" . Reported TGI? > 100 µM

Which TGI value belongs to COC(=O)C1=C(C(=O)OC)C2CCC1CC2=O (stereo not drawn) ? > 100 µM

Returns the measured TGI for the input compound. Input: CCOC(=O)C1=CN(Cc2ccccc2)C2ON=C(c3ccc(Cl)cc3)C2C1 (stereo not drawn) > 65 µM

Give the measured TGI of "c1ccc2c(CCNC3=NCCO3)cccc2c1" . > 10 µM

Report TGI for "C[C@@H](Br)[C@@H]1CC[C@H]2c3[nH]c4ccccc4c3CCN2C1" please. 29.4 µM

Which TGI value belongs to "C=C1[C@@H]2CCC(C)(C)[C@H]1CCC(=O)[C@@H]2C(=O)OC" ? > 100 µM

Would you kindly share the measured TGI for "Cc1cc(NS(=O)(=O)c2ccc(N=Nc3c(Nc4ccccc4)nn(-c4ccc(S(=O)(=O)Nc5ccncn5)cc4)c3C)cc2)no1" ? > 100 µM

Query: TGI; subject: "COc1cc(-c2nc3cc(Cl)c(Cl)cc3[nH]2)ccc1OCC(=O)N=Nc1c(O)[nH]c2ccccc12" 1.76 µM

I am curious: what TGI value has been reported for "C=CCOc1ccc2c(c1)CC[C@@H]1[C@@H]2CC[C@]2(C)C(=O)/C(=N/O)C[C@@H]12" ? 25.7 µM

If you can, please state the reported TGI value of "CC(=O)Nc1ccc2cc3c(nc2n1)c1cccnc1n3S(=O)(=O)c1ccccc1" . > 100 µM

Query: TGI; subject: Cc1cccc(C)c1NC(=O)/C(CC(=O)CC(c1ccccc1)c1c(O)c2ccccc2oc1=O)=N/O (stereo not drawn) > 100 µM

Fill in: TGI of "COc1cc2oc(=O)cc(C)c2c(OC)c1OC" is ___ > 100 µM

Reported TGI, compound CC(=O)Oc1ccc(C2SCc3nc4ccccc4n32)cc1 (stereo not drawn) : ____ > 100 µM

Field request: TGI | item: OC1/C(=C/c2ccccc2)CNC/C1=C\c1ccccc1 (stereo not drawn) > 100 µM

I'd like to know its TGI. The compound in question is O=C1CCCC1C(O)(C(F)(F)Cl)C(F)(F)Cl (stereo not drawn) > 10 µM

Quick check: TGI of "O=[N+]([O-])C(=C(\Cl)NCCO)/C(Cl)=C(/Cl)Br" ? 7.3 µM

Param item = Nc1c2c(c(O)c3c1=C(CO)C=N3)=NCCS2=O (stereo not drawn) ; retrieve measured TGI. 2.36 µM

For the compound shown here, "O=C(O)c1cc2sc(C(=O)O)cc2s1" , give the reported TGI. > 100 µM

Request the reported TGI associated with CC1=NN(c2cccc(S(=O)(=O)O)c2)C2(C1)SCC(=O)N2c1nc2ccccc2s1 (stereo not drawn) > 100 µM

Form field: reported TGI of "O=c1cc(/C=C/c2ccccc2)c2ccc(O/C(=C\c3ccccc3)c3nc4ccccc4c(=O)o3)cc2o1" 41 µM

Look up TGI for this compound: "Cc1cccc2c1CC1(Cc3c(C)cccc3C1=O)C2=O" > 100 µM

Please give the measured TGI for this compound: "O=c1c(-c2nc3ccccc3[nH]2)cc2ccccc2n1Cc1cn(Cc2ccc(F)cc2)nn1" > 85.7 µM

Which value of TGI has been reported for "Cc1cc(=O)[nH]c2c1C(=O)C(=O)C=C2" in the records? 36.9 µM

Need TGI of "COc1ccc(-c2nc3ccccc3c(=O)[nH]2)cc1OC" , thanks. > 100 µM

Data request, read-out TGI, for "O=C(/C=C/c1ccco1)c1cccc(Nc2nc(Nc3ccccc3)nc(Nc3ccccc3)n2)c1" > 100 µM

Find the recorded TGI belonging to "CCCCCCOc1ccc(/C=N/Nc2cc(C)nc3ccc(Br)cc23)cc1" and report it. 3.04 µM

Reported TGI for "CCCCCCCCC[C@@H]1C[C@H](O)[C@H](Cc2ccccc2)N1C(=O)OC(C)(C)C" : what is it? 33.1 µM

Query: TGI; subject: "CSc1c(C#N)c(=O)n(N)c2n[nH]c(C)c12" > 100 µM

Which TGI reading was recorded for the compound NC1=C(O)/C(=N/NS(=O)(=O)c2ccccc2)C(c2cccc(Cl)c2)O1 (stereo not drawn) ? > 100 µM

I would be grateful if you could share the reported TGI for COc1ccccc1NC(=O)C(=O)C(C#N)CC(C)(C)C=O (stereo not drawn) . > 100 µM

Please give the measured TGI for this compound: COC1=C2C[C@](OC)(C#CC=CC#CC2O)CC1(C)C (stereo partly drawn) > 100 µM

Form field: reported TGI of CCN(CC)C(=O)CCNC(C)Cc1c[nH]c2ccccc12 (stereo not drawn) > 100 µM

Suppose we examine the compound "Nc1c(-c2ccc(-c3c(N)[n+]([O-])c4ccccc4[n+]3[O-])cc2)[n+]([O-])c2ccccc2[n+]1[O-]" ; what TGI value has been reported? 23.6 µM
